Catalogue of compounds with associated Percentage erosion (%) of compression-coated tablet containing Compound 1
ASSAY NAME: Determination of percentage erosion of core tablet
Format: physicochemical
TEST CONDITIONS: core: 9 parts Compound 1 solid dispersion + 6 parts of the filler; 3 hours in water at 37° C.
Write it as a number; the unit % goes unstated.

Reference set, count: 3
COMPOUND	ENDPOINT VALUE
O=C(O)C(O)C(O)C(=O)O (stereo not shown)	65.7
OC[C@H]1O[C@@](CO)(O[C@H]2O[C@H](CO)[C@@H](O)[C@H](O)[C@H]2O)[C@@H](O)[C@@H]1O	48.4
O=C(O)/C=C/C(=O)O	2.0

If you can, please state the reported Percentage erosion (%) of compression-coated tablet containing Compound 1 value of "O=C1O[C@H]([C@@H](O)CO)C(O)=C1O" .
32.4
